system: LOX IMVI melanoma; experiment: NCI tumour cell line growth inhibition, 48 h; in the data active = GI50 below about 0.43 µM; inactive = the rest
Choose the fitting class; nothing outside active, inactive is accepted.

Compound	Category Label
CC/C=C\C[C@H](O)C/C=C1/C(=O)C(Cl)=C[C@@H]1C/C=C\CCCC(=O)OC	active

Asked: What is the recorded call for this compound in the test? COC(=O)COc1ccccc1/C=C1\N=C(c2ccccc2)N(c2cc(C(F)(F)F)ccc2Cl)C1=O
Given back: inactive

Asked: For COC(=O)C[C@](O)(CCCC(C)(C)O)C(=O)O[C@@H]1C(OC)=C[C@]23CCCN2CCc2cc4c(cc2[C@H]13)OCO4 , which call appears in the assay record?
Given back: active

Asked: I'd appreciate the recorded outcome for CSC1=Nc2c(c(C)c(C)n2COC(CO)CO)C2=NC(=O)C(C)N12 (centres undefined) from this test.
Given back: inactive

Asked: Which outcome did this test record for the compound N.N.N.N.O=C([O-])CCl.O=C([O-])CCl.[Co+3].[O-][Cl+3]([O-])([O-])[O-] ?
Given back: inactive

Asked: Recorded test outcome, item O=C(O)COc1ccc2c(=O)c3sc4c(=O)c5ccccc5c(=O)c4c3c(=O)c2c1
Given back: inactive

Asked: // return assay outcome for Cn1cc(C2=C(c3ccc(N)cc3)C(=O)NC2=O)c2ccccc21
Given back: inactive

Asked: Hey, what did the test say about C/C=C(\C)C(=O)O[C@H]1C=CC(=O)O[C@H]1CCC(=O)[C@H](C)O ?
Given back: inactive

Asked: Hi, sorry to bother you, what did the test record for CNCc1ccccc1-c1csc([C@@H](C)Nc2nc(C)nc3cc(OC)c(OC)cc23)c1 ?
Given back: inactive
